Molecular target: Trace amine-associated receptor 5 (Mus musculus, UniProt Q5QD14)
Sequence (Q5QD14 whole entry): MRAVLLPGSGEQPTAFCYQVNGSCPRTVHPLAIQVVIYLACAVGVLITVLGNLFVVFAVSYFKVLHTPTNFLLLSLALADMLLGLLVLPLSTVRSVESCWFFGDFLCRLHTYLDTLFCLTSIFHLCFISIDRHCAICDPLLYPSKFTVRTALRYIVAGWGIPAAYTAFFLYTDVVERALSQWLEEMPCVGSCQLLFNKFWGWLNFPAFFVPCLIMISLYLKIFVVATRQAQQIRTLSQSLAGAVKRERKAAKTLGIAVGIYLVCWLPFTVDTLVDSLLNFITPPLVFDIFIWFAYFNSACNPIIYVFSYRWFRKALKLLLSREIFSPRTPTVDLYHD
Test: Agonist activity at mouse TAAR5 expressed in HEK293 cells assessed as increase in cAMP release after 30 mins by BRET assay relative to control

>  <line notation>
CN(C)C

>  <target system>
Trace amine-associated receptor 5 (Mus musculus, UniProt Q5QD14)

>  <EC50 / µM>
2.1

$$$$

Data provenance is ChEMBL document CHEMBL3784953.
